- Test: pharmacokinetics following single-dose administration of oral LEN 50-1800 mg
- Type: in vivo
- Protocol conditions: human, plasma; single-dose oral LEN 50-1800 mg
Property label: half-life

[[record]]
structure_smiles = "CC(C)(C#Cc1ccc(-c2ccc(Cl)c3c(NS(C)(=O)=O)nn(CC(F)(F)F)c23)c([C@H](Cc2cc(F)cc(F)c2)NC(=O)Cn2nc(C(F)(F)F)c3c2C(F)(F)[C@@H]2C[C@H]32)n1)S(C)(=O)=O"
property_label = "half-life"
assay_result = "10 to 13 days"

